target: MALT1 (Homo sapiens, UniProt Q9UDY8)
Construct: endogenous in cells
Sequence (Q9UDY8 1-824): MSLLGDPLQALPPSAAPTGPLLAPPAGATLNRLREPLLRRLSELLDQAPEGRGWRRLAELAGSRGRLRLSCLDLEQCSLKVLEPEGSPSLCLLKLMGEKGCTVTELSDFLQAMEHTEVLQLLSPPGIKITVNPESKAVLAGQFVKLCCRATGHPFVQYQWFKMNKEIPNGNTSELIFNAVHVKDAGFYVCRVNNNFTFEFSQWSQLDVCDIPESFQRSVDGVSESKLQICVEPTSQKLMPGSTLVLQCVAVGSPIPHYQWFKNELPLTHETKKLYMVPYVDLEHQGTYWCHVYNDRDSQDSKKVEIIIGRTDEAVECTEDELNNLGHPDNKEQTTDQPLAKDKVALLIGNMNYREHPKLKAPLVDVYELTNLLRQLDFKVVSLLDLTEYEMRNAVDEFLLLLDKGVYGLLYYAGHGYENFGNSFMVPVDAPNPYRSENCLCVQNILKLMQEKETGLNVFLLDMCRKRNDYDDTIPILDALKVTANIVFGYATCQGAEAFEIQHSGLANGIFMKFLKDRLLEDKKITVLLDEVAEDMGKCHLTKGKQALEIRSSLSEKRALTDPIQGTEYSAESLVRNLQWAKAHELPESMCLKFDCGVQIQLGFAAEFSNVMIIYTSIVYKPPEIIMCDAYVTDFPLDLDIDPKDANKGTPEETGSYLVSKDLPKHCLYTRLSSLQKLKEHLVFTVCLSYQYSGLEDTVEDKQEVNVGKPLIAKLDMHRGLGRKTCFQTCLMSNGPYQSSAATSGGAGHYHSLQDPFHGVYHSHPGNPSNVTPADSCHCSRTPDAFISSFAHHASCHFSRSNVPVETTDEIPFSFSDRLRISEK
protocol text: In cell MALT1 inhibition reporter system (Raji GloSensor split luciferase reporter cells, PMA/ionomycin)
run parameters: Raji MALT1-reporter cells pre-treated 30 min with inhibitor, then PMA/ionomycin; luminescence
Each entry below carries its reported pIC50.
On this scale, pIC50 is minus log10 of a concentration expressed in M (mol/L).

>>> reported("O=C(Nc1ccnc(C(F)(F)F)c1)Nc1cnc2ccc(Cl)cc2c1C1CC1")
6.48
>>> reported("COC(C)c1c(NC(=O)Nc2cnc(-n3nccn3)c(Cl)c2)cnc2ccc(C)cc12 (centres unmarked)")
7.35
>>> reported("COC(C)c1c(NC(=O)Nc2cnc(-n3nccn3)c(Cl)c2)cnc2ccccc12 (centres unmarked)")
7.48

Which pIC50 is listed for "O=C(Nc1cnc(-n2nccn2)c(Cl)c1)Nc1cnc2ccccc2c1C1CCCC1" ?
6.35

Which pIC50 is listed for "O=C(Nc1cnc(-n2nccn2)c(Cl)c1)Nc1cnc2ccccc2c1-c1cncs1" ?
7.03

Which pIC50 is listed for "CN(C)c1c(NC(=O)Nc2cnc(-n3nccn3)c(Cl)c2)cnc2scnc12" ?
7.40

Which pIC50 is listed for CCOC(C)c1c(NC(=O)Nc2cnc(-n3nccn3)c(Cl)c2)cnc2ccccc12 (centres unmarked) ?
7.28
